Cited source for all entries: the DeepSol protein solubility set

# PROTOCOL_NOTES: soluble on expression in E. coli; label from the status in PepcDB or PDB records
REPORTED_ENDPOINT: soluble on expression in E. coli

As a guide, the following entries are already answered.
DKGTALLVNRSLRFGERTAEELMTPRVKIVTLSTTDTVADLIDTASRTGFSRFPVVESDLDDAVGVVHIKHAFAVPAHRRRTARLNSLAQKVPVVPSSLDGDALMERIRSDGMQVAFVVDEYGGTAGMVTMEDLIEEIVGDVR | not soluble
MGSDKIHHHHHHMSTARLVLLGGFLGAGKTTTMIKSALKLEKEGYRVAIVTNDQGKELIDTELARANGLESKEVTGGCFCCQFDDLYNNLNTLMKEKQPDVIIAEAVGSCTDLAATVIQPLKQYYADKFKTAPLTIVVEPARLLHELNLDENTKPFFSQSVSYIFEKQLAEADIIALNKVDRYSEEEIAKLKAYLQQRYPQTIIQTFSAERGDNLEALTHTWLTTDLGGDKVLDIDYELYAEGEAQLAWMNILGDIKAEQDINPREWAEKLLDNLNKHFIREKMAIAHLKVHVGFEGGYVKASMVQTGDAPTFTVENVKEGKEFRIVLNIRIEATPAILNLVVADSIGAINKELGSNWSETYNECFSPLPPKPVHRLYETV | not soluble
MPITNERKETIRVAKKLNKFIALPSMLNWKVHESDVLRRGRVLCMIRSKNFFFPDDISSLKMRMATVTKHGYLVLYESVDEGLVIDLRSATHILTECDKYKSERIKYSRSHVKVRLPRGNVHMFLRDDDISKWTAALLEAHVSFRPTAAARVVAKPRQQPSKNVETMTAIEPVEVMDSPTSPVTSSNSGLITVLERGVSSEDTLIPSVRRGVIPVNTLRYQIEKHLEMCTPASEQLSKSSDPNISSMYVFHQGIQVKQEPIDDDQEEEQQVQKQLVFKIEGSEDEEAVKKEWWLRSLRC | not soluble
MDVFLMIRRHKTTIFTDAKESSTVFELKRIVEGILKRPPDEQRLYKDDQLLDDGKTLGECGFTSQTARPQAPATVGLAFRADDTFEALCIEPFSSPPELPDVMKPQDSGSSANEQAVQ | soluble
MRTELLSKLYDDFGIDQLPHTQHGVTSDRLGKLYEKYILDIFKDIESLKKYNTNAFPQEKDISSKLLKALNLDLDNIIDVSSSDTDLGRTIAGGSPKTDATIRFTFHNQSSRLVPLNIKHSSKKKVSIAEYDVETICTGVGISDGELKELIRKHQNDQSAKLFTPVQKQRLTELLEPYRERFIRWCVTLRAEKSEGNILHPDLLIRFQVIDREYVDVTIKNIDDYVSDRIAEGSKARKPGFGTGLNWTYASGSKAKKMQFKG | soluble

Turning now to a further record.
Task item: I'd like to know its soluble on expression in E. coli. The sequence in question is MGSDKIHHHHHHMTPTMSNIATLDDVRYQEHILQGVSRTFALTIPQLPPALREVVGNAYLLCRIVDTVEDDSALTLEQTRELAEMFIEVVSGTVEAETFARALYPLLSEHTIPAEHDLIKHTPSVIRMTHSFNPVQRQALERCIRIMGQGMAAYQESESLSGLENLAEMDRYCYHVAGVVGEMLTELFCDYSPEINQHKPALMQLSVSFGQGLQMTNILKDIWEDRKRGACWLPRDIFLQEGFDLNDLQPGCPERGFHAGLGTLIGIAKTHLQNALAYTCLIPSHEAGVRRFCLWAIGMAVLTLNKINHKRDFITGREVKISRRSVRATVLITSLLASQDWALKKIFAISSRNLPEVQIARS
Reply: not soluble

====

# PROTOCOL_NOTES: soluble on expression in E. coli; label from the status in PepcDB or PDB records
REPORTED_ENDPOINT: soluble on expression in E. coli

GPGSMKLLKFVNSDAPHTLADVQLRNQRLWFPCRHGNAAVAAKSWTLTAASPASVSGGYWLLDDDSQPICEITDVLLALPETAANAAGSSGTFAPRGVTDKDVDGIDFRSKMGRQMERERATYGATSKTATKSARTMMNAEEMTEKKNERMKREREAVAEAIEDNDASVMEPRKKERKHSKK | soluble
MKGGLLVDDEFIHGAARSLTVRKTSLFFAGDGFTVYDCKGSLVFRVDSYGGPNTRDTDEVVLMDAHGRCLLTLRRKRPSLRRRWEGYLGERSDGQKPIFGVRRSSIIGRNSVTVEVYGDYQCSEYLIEGSFGARNCTVVEAETRRKVAEIRRKVDASTNVMLGKDVFSLNVKPGFDGAFAMGLVLVLDQIYGDDLLEVGEEQVHPSAEDL | soluble
GHHHHHHLEKCVFVTVGTTSFDDLIACVSAPDSLQKIESLGYNRLILQIGRGTVVPEPFSTESFTLDVYRYKDSLKEDIQKADLVISHAGAGSCLETLEKGKPLVVVINEKLMNNHQLELAKQLHKEGHLFYCTCSTLPGLLQSMDLSTLKCYPPGQPEKFSAFLDKVVGLQK | not soluble
MAAKKRGLGRGLDALLGGSSPAKLQEEAVQADRRELQQIPLDLMQRGKYQPRRDMDPQALEELAQSIKAQGVMQPIVVRPIANGRYEIIAGERRWRASQQAGLEKIPALVRDVPDEAAIAMALIENIQREDLNPIEEAAALQRLQQEFQLTQQQVAEAVGKSRATITNLLRLIGLPEEIKTLLSHGDLEMGHARALLGLPAERQVEGARHVVAHGLTVRQTEALVRQWTHAPGKPAGPVKSDPDIARLEQRLAERLGASVQIRHGQKGKGQLVIRYSSLDELQGVLAHIR | not soluble

====

# PROTOCOL_NOTES: soluble on expression in E. coli; label from the status in PepcDB or PDB records
REPORTED_ENDPOINT: soluble on expression in E. coli

MAQGLIEVERKFAPGPDTEERLQELGATLEHRVTFRDTYYDTSELSLMLSDHWLRQREGSGWELKCPGVTGVSGPHNEYVEVTSEAAIVAQLFELLGSGEQKPAGVAAVLGSLKLQEVASFITTRSSWKLALSGAHGQEPQLTIDLDSADFGYAVGEVEAMVHEKAEVPAALEKIITVSSMLGVPAQEEAPAKLMVYLQRFRPLDYQRLLEAASSGEATGDSAS | soluble
MSLGPVVHQTSSRFRRRSAQPTWDMSDGCADAIAFRVDSEGIKLHGFGIYLPTEPDRRNFVGEIMMLSPDSSEKWTCLLRVTAEMSSEEKEVGIVRFPEYVLLSPGVTYAVKVNMMKNTKTFCGEGGVTQVHLLNGARLFFSGCSMSQNGTTVQRGQLPYLIYSILDQSNSLQIKQEGHHHHHH | soluble
SSNEHGPVKRSSQSTLERSEQQIRAASSLEELLRITHSEDWKLWRCRLRLKSFTSMDSRSASHRSTRFAATFYDIETLKVIDEEWQRTQCSPRETCVEVASELGKSTNTFFKPPCVNVFRCGGCCNEESLICMNTSTSYISKQLFEISVPLTSVPELVPVKVANHTGCKCLPTAPRHPYSIIRRSIQIPEEDRCSHSKKLCPIDMLWDSNKCKCVLQEENPLAGTEDHSHLQEPALCGPHMMFDEDRCECVCKTPCPKDLIQHPKNCSCFECKESLETCCQKHKLFHPDTCSCEDRCPFHTRPCASGKTACAKHCRFPKEKRAAQGPHSRKNP | soluble
MSLSPEHKRTALVTGANSGLGKAIVTALAADGLRVGLVARDRGRGEAALADVRAATGNQDLHLFVADLADQESIRALAQDVRARFDRLHLLINNAGTAFPERRLSPQGIERAFAINHLGPFLLTNLLLDLIKASAPARIVNVGTRIDAAIDFDDLNWDKRPYGMMKGYAQSKLGNLHFTFELARRLEGSGVTVNCVFPGVFKSNLGGTDGAQGLFWKLLAKLGGWAIPKPESAAQRVLYLANAPELESVSGQYYANRKTIPAPAQALDAEANRRLWEISERMTGLTQSQTVGDQAATEGHHHHHH | soluble
MWEYLIHGEPTPRLKPFLEGVGKALEAQGFRHNPESEAPNLVLNAITPENPRPYRRRAQATFVASVLELPEFPQDPLRELYPYLVRALSNVLLAYVPGQGVKFLTLELGHYGEPEGKGFYERVAARLRPIACSRLVINNIFEPDLEPELWQGDELTESMYRAGKKLKEWDLLPAPFPIEEILPPEDLRHVKRLYGIGGLSYGNLSVRKDEKRFWMSASGVDKANLREIGRDILMVKDYDPERNAILLSVPPHVEPRRVSVDAIEHWMIYREHPEVGAILHVHAWMEGVPATAFNYPCGTYELAQAVADKVREAPDPARAVVGLKNHGLTITGRSLDEILERIEGKLIRTVPMA | soluble

Task item: I'd like to know its soluble on expression in E. coli. The sequence in question is MRVEPLPGVPAATVDTDGERLLAVADYHAGIEAGLRYEGVELQSAAEARRERLLTCLRRARADRLVVIGDLGHAIGDPFADERAELETLFDALDVPVTLVKGNHD
Reply: not soluble

Task item: I'd like to know its soluble on expression in E. coli. The sequence in question is MGSDKIHHHHHHLIPKIIHYCWFGNSELPDIVKDCISSWKKYCPEYEIKRWDESNYDVSKNAYTRAAYKNKKWAFLTDYVRLDVLYNEGGVYMDTDVKLIRSLDPLIDKGPFMSFEKRGRVNTGVGFACEAGNPIVKENKDYYENNLFVDENGNFEPEICVKITTKILIKHGLNYTENVVQKVDGLIVYSSDYFSPKKLGTEKITLTSNTYGIHLFASSWYKGSKIYKKMKYHLIPLKEFIKYKILSKKLYE
Reply: not soluble

Task item: I'd like to know its soluble on expression in E. coli. The sequence in question is MGSDKIHHHHHHMKSLGRHLVAEFYECDREVLDNVQLIEQEMKQAAYESGATIVTSTFHRFLPYGVSGVVVISESHLTIHTWPEYGYAAIDLFTCGEDVDPWKAFEHLKKALKAKRVHVVEHERGRYDEIGIPEDSPHKAAV
Reply: soluble

Task item: I'd like to know its soluble on expression in E. coli. The sequence in question is LQFAYKDPEKNWNRNSVKGLVASLINVKDNSTATALEVVAGERLYNVVVDTEVTAKKLLEKGELKRRYTIIPLNKISARCIAPETLRVAQNLVGPDNVHVALSLVDYKPELQKGMEFVFGTTFVCNNMDNAKKVAFDKRIMTRTVTLGGDVFDPHGTLSGG
Reply: soluble

Task item: I'd like to know its soluble on expression in E. coli. The sequence in question is DKVQNAVMQAMVRGSLNKDLAAQIKDLGKTTEKRAMFIARDQSSKLNAALTQARHEEVGIKKYMWSASLDERVRESHAEKDGQIFEYANPPADTDHPGHDFNCRCVQI
Reply: not soluble

Task item: I'd like to know its soluble on expression in E. coli. The sequence in question is MCARIQQLPVFFIFILYGSCATTKRNIYVLAINKLMEQQIRKYESFNDLPADCKKLFDSGEKDSFDLSRDWFLLLETTVIRQTKEICIFTLEIEGVTQGIWPTLLQKKGKLSLRQISSFTCFYSSLYQPLISSSLTVDKLADCLRWILSDTRTDVLRFDIMDPSQSSFNLHEQALKKIGFKTDRFFCWGNWYLPVNNQPFSVYLQNLSSRVRNTLERRKKKFLAGGHGKLEILTTHDKLPIAIQAWEKIYNASWKIPEPYPEFMPSLISLCAAKGWLRLGIAYYDEEPIAAQLWIVNQGRAAIYKLAYDEKFAHLSPGTILTAHLMQHAIDVDKVHEVDYLTGDDAYKKDWMSHRRERLGLVAYNLRSFWGLIGISKHIAGKIRKKILKSLK
Reply: not soluble

Task item: I'd like to know its soluble on expression in E. coli. The sequence in question is SNSGEPAPVLSSPTPTDLSTFLSFPSPEKLLRLGPKVSVLIVQQTDTSDPEKVVSAFLKVASVFRDDASVKTAVLDAIDALMKKAFSCSSFNSNTFLTRLLIHMGLLKSEDKIKAIPSLHGPLMVLNHVVRQDYFPKALAPLLLAFVTKPNGALETCSFARHNLLQTLYNI
Reply: soluble
